meta.source: ChEMBL document CHEMBL1131201

assay: Lipophilicity value was evaluated; assay type: physicochemical; conditions: RP-HPLC
Property: Log Ko; scope: individual compounds
Quick one: just the number, no unit, thanks!

# count of solved cases: 10
Cc1ccccc1NC(=O)CNC(=O)OCc1ccccc1 = 3.49
CC(C)(C)NC(=O)CNC(=O)OCc1ccccc1 = 3.25
CC(C)NC(=O)CNC(=O)OCc1ccccc1 = 2.65
O=C(CNC(=O)OCc1ccccc1)NCCc1ccccc1 = 3.88
COC(=O)CNC(=O)OCc1ccccc1 = 2.64
COC(=O)CNC(=O)CCc1ccccc1 = 2.37
O=C(CNC(=O)OCc1ccccc1)NCc1ccccc1 = 3.5
NC(=O)CNC(=O)OCc1ccccc1 = 1.52
O=C(CNC(=O)OCc1ccccc1)NC1CCCCC1 = 3.7
O=C(CNC(=O)OCc1ccccc1)Nc1ccccc1 = 3.49

Please list Log Ko recorded for the compound CNC(=O)CNC(=O)OCc1ccccc1 2.03

Please list Log Ko recorded for the compound Cc1ccc(NC(=O)CNC(=O)OCc2ccccc2)cc1 3.99

Please list Log Ko recorded for the compound O=C(CNC(=O)OCc1ccccc1)OCc1ccccc1 4.35

----------
Property: ED50; scope: individual molecules
system: Mus musculus; test: Compound was tested for anticonvulsant activity in maximal electroshock seizure(MES) test after 3 hours upon intraperitoneal administration to mice; format: functional; settings: ip
Report the value in mg/kg with no unit label.

NC(=O)CNC(=O)OCc1ccccc1 = 8.3
CNC(=O)CNC(=O)OCc1ccccc1 = 7.8
O=C(CNC(=O)OCc1ccccc1)NCCc1ccccc1 = 16.6
O=C(CNC(=O)OCc1ccccc1)NCc1ccccc1 = 11.6
Cc1ccc(NC(=O)CNC(=O)OCc2ccccc2)cc1 = 27.4
CCCCCNCC(N)=O [MILACEMIDE] = 30.2
Cc1ccccc1NC(=O)CNC(=O)OCc1ccccc1 = 74.3
CC(C)NC(=O)CNC(=O)OCc1ccccc1 = 9.5

Please list ED50 recorded for the molecule O=C(O)CNC(=O)OCc1ccccc1 56.5
